src = patent US10800785B2

The entries below are paired with their reported IC50.
System: DOHH2 cells
protocol_summary: Cell proliferation assay (MTS) in DOHH2 cells, mechanism-based assay for BTK inhibition
condition_summary: Homo sapiens, DOHH-2, 120 h incubation, 5000 cells/well

Examples from the recorded data:
{"compound_string": "CN(C)C/C=C/C(=O)N1CC[C@@H](c2cn(-c3ccc(Oc4ccccc4F)cc3)c3c(N)n[nH]c(=O)c23)C1", "measured_on": "DOHH2 cells", "IC50": "247 nM"}
{"compound_string": "CC#CC(=O)N1CC[C@@H](c2nn(-c3ccc(Oc4ccccc4F)cc3)c3c(N)n[nH]c(=O)c23)C1", "measured_on": "DOHH2 cells", "IC50": "440 nM"}
{"compound_string": "C=CC(=O)N1CCC[C@@H](c2cn(-c3ccc(Oc4c(F)cccc4F)cc3)c3c(N)n[nH]c(=O)c23)C1", "measured_on": "DOHH2 cells", "IC50": "221 nM"}
{"compound_string": "C=CC(=O)N1CCC[C@@H](c2nn(-c3ccc(Oc4cccc(F)c4F)cc3)c3c(N)n[nH]c(=O)c23)C1", "measured_on": "DOHH2 cells", "IC50": "42 nM"}
{"compound_string": "C=CC(=O)N1CC[C@@H](c2cn(-c3ccc(Oc4ccccc4F)cc3)c3c(N)n[nH]c(=O)c23)C1", "measured_on": "DOHH2 cells", "IC50": "21 nM"}
{"compound_string": "CC#CC(=O)N1CC[C@@H](c2nn(-c3ccc(Oc4ccccc4)cc3)c3c(N)n[nH]c(=O)c23)C1", "measured_on": "DOHH2 cells", "IC50": "505 nM"}

Give the measured IC50 of C=CC(=O)N1CCC(c2cn(-c3ccc(Oc4ccccc4F)cc3)c3c(N)n[nH]c(=O)c23)CC1 . 161 nM

Give the measured IC50 of COC/C=C/C(=O)N1CC[C@@H](c2cn(-c3ccc(Oc4ccccc4)cc3)c3c(N)n[nH]c(=O)c23)C1 . 640 nM
